molecular target: Retinal dehydrogenase 2 (Homo sapiens) (UniProt O94788); assay: qHTS for Inhibitors of the Aldehyde Dehydrogenase Family (ALDH1A2) Confirmation screens (AID 2061314); conditions: ALDH1A2 enzyme inhibition qHTS confirmation; series mostly up to 45.9 µM; note: nearly all actives have a fitted effect of over 65% in size
Inconclusive results are not listed. The source made the active and inactive calls. Calls come from the whole dose curve; as a rule, active = well fitted inhibition curve with a large enough effect; inconclusive = small, poorly fitted or top-dose-only effect; inactive = no such curve, though single readings can be large or run the other way.
Result category, one only: 1 (yes) = active, 0 (no) = inactive

Some solved entries appear below for comparison.
structure-smiles: COc1ccc(S(=O)(=O)c2c(C(=O)c3ccc(C)c(C)c3)cnc3ccc(C)cc23)cc1
measurement-target: Retinal dehydrogenase 2 (Homo sapiens) (UniProt O94788)
answer-label: 0 (no)
//
structure-smiles: CC(C)N1CCc2c(sc(NC(=O)C3CC3)c2-c2nc3ccccc3s2)C1
measurement-target: Retinal dehydrogenase 2 (Homo sapiens) (UniProt O94788)
answer-label: 1 (yes)
//
structure-smiles: COc1ccccc1CCNc1ncnc2c1nnn2C
measurement-target: Retinal dehydrogenase 2 (Homo sapiens) (UniProt O94788)
answer-label: 0 (no)
//
structure-smiles: Cc1ccc(NC(=O)N2CCN(c3ccc(Cl)c(Cl)c3)CC2)cc1
measurement-target: Retinal dehydrogenase 2 (Homo sapiens) (UniProt O94788)
answer-label: 0 (no)
//
structure-smiles: Cc1ccc(-c2ccccc2C=O)c(C)c1
measurement-target: Retinal dehydrogenase 2 (Homo sapiens) (UniProt O94788)
answer-label: 0 (no)

Problem: Hello, I am checking results. What call was entered for `O=C1Cc2cc(S(=O)(=O)N3CCN(c4ccc(F)cc4)CC3)ccc2N1` ?
Result: 0 (no)

Problem: Hello, I am checking results. What call was entered for `COc1cccc(CNC(=O)c2ccc3c(c2)sc2nc(-c4ccccc4)cn23)c1OC` ?
Result: 0 (no)

The measurements presented in this section are drawn from PubChem BioAssay (NCATS).
